target: nAChR formed by the α7 subunit isoform (Rattus norvegicus, UniProt Q05941); assay: biochemical; format: binding
Sequence (Q05941 23-502): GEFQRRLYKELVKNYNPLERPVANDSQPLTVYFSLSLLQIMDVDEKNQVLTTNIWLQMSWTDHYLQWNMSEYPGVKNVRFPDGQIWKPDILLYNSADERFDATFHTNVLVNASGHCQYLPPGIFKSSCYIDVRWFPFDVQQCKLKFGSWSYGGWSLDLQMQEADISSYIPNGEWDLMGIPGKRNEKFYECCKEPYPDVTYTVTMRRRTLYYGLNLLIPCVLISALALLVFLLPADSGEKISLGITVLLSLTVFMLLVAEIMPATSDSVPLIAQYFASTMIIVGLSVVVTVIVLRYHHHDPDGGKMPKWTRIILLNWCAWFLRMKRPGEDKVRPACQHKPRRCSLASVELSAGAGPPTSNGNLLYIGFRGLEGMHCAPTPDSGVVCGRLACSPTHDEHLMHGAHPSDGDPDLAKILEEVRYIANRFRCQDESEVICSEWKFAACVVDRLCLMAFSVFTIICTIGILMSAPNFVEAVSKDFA
pIC50: −log10 of the molar value.
measure name: pIC50

> print(dat)
                                   molecule  value.comparator  reported.result
1                    COc1cncc(N2CCN(C)C2)c1                 <             4.52
2  CCCOc1cncc(N2CCCNCC2)c1 [Compound 10H, 1-(5-Propyloxy-3-pyridyl)-homopiperazine]                 <             4.52
3                    Clc1ccc(N2CCCNCCC2)nn1                 =             6.34
4                     Brc1ccc(N2CCCNCC2)cn1                 =             6.21
5                    CCOc1cncc(N2CCCNCC2)c1                 =             4.70
6                     Clc1cncc(N2CCCNCC2)n1                 =             5.25
7                   CCCCOc1cncc(N2CCNCC2)c1                 <             4.52

====

Structures can show the parent of a compound that is named as a salt.
measure name: melting point

> print(dat)
                                    compound   measure.name    reported.result
 1  CCCCOc1cncc(N2CCNCC2)c1 (as salt: fumaric acid salt)  melting point  149.4 to 151.7 °C
 2  CCCCCOc1cncc(N2CCCNCC2)c1 (as salt: fumaric acid salt)  melting point  155.5 to 156.7 °C
 3  c1ccc(-c2ccc(N3CCCNCC3)nn2)cc1 (as salt: fumaric acid salt)  melting point      187 to 189 °C
 4  c1ncc(N2CCCNCC2)cc1OC1CCCC1 (as salt: fumaric acid salt)  melting point      148 to 150 °C
 5  CC(C)CCOc1cncc(N2CCCNCC2)c1 (as salt: fumaric acid salt)  melting point    139.9 to 142 °C
 6  Brc1ccc(N2CCCNCC2)cn1 (as salt: fumaric acid salt)  melting point      164 to 166 °C
 7  CCCCCCOc1cncc(N2CCCN(C)CC2)c1 (as salt: fumaric acid salt) [Compound 11E]  melting point  128.7 to 130.8 °C
 8  COc1cncc(N2CCN(C)C2)c1 (as salt: fumaric acid salt)  melting point      139 to 142 °C
 9  c1ccc2nc(N3CCCNCC3)cnc2c1 (as salt: fumaric acid salt)  melting point      177 to 180 °C
10                   COc1cncc(N2CCN(C)CC2)c1  melting point      67.5 to 68 °C
11  COc1cccc(N2CCCNCC2)c1 (as salt: fumaric acid salt)  melting point  164.1 to 165.7 °C
12  COc1ccc(N2CCCNCC2)cn1 (as salt: fumaric acid salt)  melting point      127 to 128 °C
13  COc1cncc(N2CCCNC(C)CC2)c1 (centres unmarked) (as salt: fumaric acid salt) [Compound 11A]  melting point      137 to 139 °C
14  CCOc1cncc(N2CCCN(C)CC2)c1 (as salt: fumaric acid salt)  melting point      150 to 152 °C
15  CCOc1cncc(N2CCCNCCC2)c1 (as salt: fumaric acid salt)  melting point  162.5 to 164.5 °C
16  C=COc1cncc(N2CCCNCC2)c1 (as salt: fumaric acid salt)  melting point      143 to 144 °C
17  c1ccc2ncc(N3CCCNCC3)cc2c1 (as salt: fumaric acid salt)  melting point      181 to 182 °C
18  Clc1cncc(N2CCCNCC2)c1 (as salt: fumaric acid salt)  melting point  144.4 to 146.6 °C
19  CCCCCOc1cncc(N2CCCN(C)CC2)c1 (as salt: fumaric acid salt) [Compound 15E]  melting point    129 to 130.8 °C
20  C#Cc1cncc(N2CCCNCC2)c1 (as salt: fumaric acid salt)  melting point    172.5 to 174 °C
21  CN1CCCN(c2cncc(SCc3ccccc3)c2)CC1 (as salt: fumaric acid salt) [Compound 18E]  melting point      131 to 133 °C
22  CCOc1cncc(N2CCNCC2)c1 (as salt: fumaric acid salt)  melting point    160 to 161.2 °C
23  Clc1ccc(N2CCCNCCC2)nn1 (as salt: fumaric acid salt)  melting point      176 to 178 °C

Values were extracted from patent US6897219B2.
